Taken from PubChem BioAssay.

method-description: small-molecule microarray binders of probe aNog, primary screen, biochemical, biotinylated probe, 635/667 nm fluorescence (AID 1115);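 further: probe is biotinylated aNog protein used at 0.15 µg/mL for 1 h at 4 C; z-score combines 667 nm fluorescence of each spot with its signal to noise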
recorded-conditions: higher = more signal
property-measured: composite z-score
No unit in the answer, only the number.

IN: Name the reported composite z-score value associated with the molecule `CC(CCN1CCCCc2nc(C)c(C)cc21)=NO[C@H](C)c1cn([C@H](CO)Cc2ccccc2)nn1`
OUT: -0.208

IN: If you can, please state the reported composite z-score value of `CO[C@H]1COC(=O)[C@H](C)NC(=O)CC=C[C@@H](C)[C@H](OC)COC(=O)[C@@H](OCc2ccccc2)C=C[C@@H]1C` .
OUT: 0.0021

IN: Which composite z-score is reported for this molecule? `CO[C@@H]1COC(=O)CC=C[C@H](C)[C@H](OC)COC(=O)[C@H](C)NC(=O)CC=C[C@H]1C`
OUT: -0.368

====

Tested on: XIP peptide (Xip251-270) binding
method-description: small-molecule binders of XIP peptide, primary screen, biochemical, small-molecule microarray, fluorescence 635/667 nm, 0.1 µg/mL protein (AID 1182)
recorded-conditions: fluorescent protein binding, 635 nm, higher = more signal, called active from +8 up or from −8 down
property-measured: composite z-score
Give your answer as a number; write no unit.

IN: Item CCOC(=O)[C@H](CC(C)C)NC(=O)CCC1CC(OC(=O)NCCc2ccc(F)cc2)CC2(CCCC(COC(=O)NCCC(C)C)O2)O1 (stereo partly drawn) has what recorded composite z-score?
OUT: -0.0575

IN: What composite z-score value was documented for this compound, `C[C@H]1CC[C@H]2C(=O)O[C@H](COc3ccc(C(C)(C)C)cc3)CN2[C@@H]1c1ccc(Br)cc1` ?
OUT: 1.71

IN: Which composite z-score value belongs to `O=C1C[C@@H](O)[C@@H](O)[C@@H]2[C@@H]3C(=O)N(Cc4ccccc4)C(=O)[C@@H]3CC[C@@H]12` ?
OUT: 0.245

IN: Need composite z-score, item `CON=C[C@@H](C)[C@H](OCc1ccccc1)C(C)C`
OUT: -0.372

IN: Entry `C#CCCCON=C1C[C@@H](O)[C@@H](O)[C@@H]2[C@@H]3C(=O)N(c4ccc(F)cc4F)C(=O)[C@@H]3CC[C@@H]12` : reported composite z-score = ?
OUT: 0.76

IN: # lookup: composite z-score of `O=c1n(Cc2cc3c(cc2Cl)OCO3)c(=O)n2n1CC[C@@H]1C(=NOCc3ccccc3)[C@H]3O[C@H]3[C@@H](O)[C@@H]12`
OUT: 0.0872

IN: Fill blank: measured composite z-score of the compound `CO[C@H]1COC(=O)CC=C[C@@H](C)[C@H](OC)COC(=O)CCC[C@@H]1C` is ____.
OUT: -0.283

IN: # lookup: composite z-score of `COc1cccc([C@H]2Oc3ccc(OC)cc3C(=NO[C@@H](C)c3cn([C@H](CO)Cc4ccccc4)nn3)[C@@H]2O)c1`
OUT: 0.213

====

study-system: Dihydroorotate dehydrogenase (quinone), mitochondrial (Plasmodium falciparum (isolate 3D7))
method-description: PfDHODH enzyme inhibitors, primary screen, biochemical, C-terminal His tag, absorbance 600 nm (AID 1175);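 further: recombinant parasite enzyme with a five histidine tag at its C terminus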
recorded-conditions: DCIP absorbance 600 nm, higher = more signal, called active from +8 up or from −8 down
Threshold check on composite z-score: at or above -1 gives rule met, strictly below gives rule not met.

IN: hey, is composite z-score for this one >= -1? `C=CC[C@@H]1C=C[C@H](ON=C[C@@H](C)[C@H](OCc2ccccc2)C(C)C)[C@@H](CO)O1`
OUT: rule met

IN: Could you please find out whether COC(=O)[C@H](C)NC(=O)CCC1CC(OC(=O)NCCc2ccc(F)cc2)CC2(CCCC(COC(=O)NCc3cccc(C(F)(F)F)c3)O2)O1 (some centres not stated) has composite z-score that meets -1 or exceeds it?
OUT: rule met

IN: Does composite z-score meet or surpass -1 for CCOC(=O)[C@H](CC(C)C)NC(=O)CCC1CC(OC(=O)NCCc2ccc(F)cc2)CC2(CCCC(COC(=O)NCCOc3ccccc3)O2)O1 (some centres not stated) ?
OUT: rule met

IN: Please indicate if the recorded composite z-score for `O=C1[C@H]2[C@H]3[C@H](O)[C@H](O)CC(=NOC[C@@H](O)COCc4ccco4)[C@H]3CC[C@H]2C(=O)N1c1ccc(F)cc1F` meets or exceeds -1.
OUT: rule not met

IN: Item `COC(=O)CC=C[C@@H](C)[C@@H](C=NO[C@H](C)c1cn([C@H](CO)Cc2ccccc2)nn1)NS(=O)(=O)c1ccc(C)cc1` with composite z-score of -1 or above?
OUT: rule met

IN: Is composite z-score for `CCCCC#C[C@@H]1C=C[C@H](Oc2cc(OC)c(OC)c(OC)c2)[C@@H](COC(=O)OCC)O1` at or above -1?
OUT: rule not met

====

method-description: A549 cell viability effects, profiling panel, calcein-AM fluorescence, 48 h, basal (AID 1162)
recorded-conditions: higher = more signal
Could you please report measured z-score for the items listed next?
// no unit, no text: just the number

IN: Form field: reported z-score of `O=c1n(Cc2cc3c(cc2Cl)OCO3)c(=O)n2n1CC[C@@H]1C(=NOC[C@@H](O)COCc3ccco3)[C@H]3O[C@H]3[C@@H](O)[C@@H]12`
OUT: -0.158

IN: Which z-score value belongs to COC(=O)[C@H](C)NC(=O)CCC1CC(OC(=O)NCc2cccc3ccccc23)CC2(CCCC(COC(=O)NCC(c3ccccc3)c3ccccc3)O2)O1 (some centres undefined) ?
OUT: -0.101

IN: For the molecule `O=C1C=C[C@@H](O)[C@@H]2[C@@H]3C(=O)N(C[C@@H]4CCCO4)C(=O)[C@@H]3CC[C@@H]12` , what z-score is on record?
OUT: -0.663

IN: // z-score lookup, key: `C#CCCCON=C1C[C@@H](O)[C@@H](O)[C@@H]2[C@@H]3C(=O)N(Cc4ccccc4)C(=O)[C@@H]3CC[C@@H]12`
OUT: 0.307

IN: Would you kindly share the measured z-score for `CCc1cc2c(nc1CC)CCN(CCC(C)=NO[C@H](C)c1cn([C@H](CO)Cc3ccccc3)nn1)C2` ?
OUT: 0.449

IN: Suppose we examine the molecule `C=CC[C@@H]1C=C[C@H](ON=C(C)CCN2CCc3nc(-c4ccccc4)c(-c4ccccc4)cc3C2)[C@@H](CO)O1` ; what z-score value has been reported?
OUT: 2.2

IN: Looking for the measured z-score of `O=c1n(Cc2cc3c(cc2Cl)OCO3)c(=O)n2n1CC[C@@H]1C(=NOCc3ccccc3)[C@H]3O[C@H]3[C@@H](O)[C@@H]12` , can you help?
OUT: 0.7

IN: // returns reported z-score for input `COc1ccc(COC(=O)NN=C2C[C@@H](O)[C@@H](O)[C@@H]3[C@@H]4C(=O)N(c5cccc(Oc6ccccc6)c5)C(=O)[C@@H]4CC[C@@H]23)cc1`
OUT: 0.226

IN: Entry `CC(C)=CCCC(C)=CCON=C1C[C@@H](O)[C@@H](O)[C@@H]2[C@@H]3C(=O)N(c4ccc(F)cc4F)C(=O)[C@@H]3CC[C@H]12` : reported z-score = ?
OUT: -1.39

IN: What value of measured z-score is listed for `O=C(NN=C1C[C@@H](O)[C@@H](O)[C@@H]2[C@@H]3C(=O)N(C[C@@H]4CCCO4)C(=O)[C@@H]3CC[C@H]12)OCc1ccccc1` ?
OUT: -0.0032

IN: Look up z-score: `CC(C)CON=C1C[C@@H](O)[C@@H](O)[C@@H]2[C@@H]3C(=O)N(c4ccc(F)cc4F)C(=O)[C@@H]3CC[C@H]12`
OUT: 0.0042

IN: Could you tell me which z-score is on file for `O=C(NN=C1C[C@@H](O)[C@@H](O)[C@@H]2[C@@H]3C(=O)N(Cc4ccccc4)C(=O)[C@@H]3CC[C@@H]12)OCc1ccccc1` ?
OUT: 0.272

IN: Need z-score, item `COCOc1ccc(Br)cc1C(=O)[C@@H]1O[C@H]1c1cccc(OC)c1`
OUT: 0.131

IN: Tell me the measured z-score of `O=C(NN=C1C[C@@H](O)[C@@H](O)[C@@H]2[C@@H]3C(=O)N(C[C@@H]4CCCO4)C(=O)[C@@H]3CC[C@@H]12)OCc1ccccc1` , please.
OUT: 0.468

IN: Entry under review: `COC(=O)[C@@H]1CC[C@H](C)[C@@H](c2ccc(C)cc2)N1C(=O)c1ccc(C=NO[C@H](C)c2cn([C@@H]3COC[C@H]3O)nn2)cc1` . Reported z-score?
OUT: 0.278

IN: Which measured z-score value corresponds to `CC(C)=CCCC(C)=CCON=C1C[C@@H](O)[C@@H](O)[C@@H]2[C@@H]3C(=O)N(c4cccc(Oc5ccccc5)c4)C(=O)[C@@H]3CC[C@@H]12` ?
OUT: -1.19

IN: // query z-score value for entry `CO[C@@H]1COC(=O)[C@H](CCSC)NC(=O)CC=C[C@@H](C)COC(=O)CCC[C@H]1C`
OUT: 0.471

IN: What value of measured z-score is listed for `CO[C@H]1COC(=O)CC=C[C@@H](C)[C@H](OC)COC(=O)[C@@H]2CCCN2C(=O)CC=C[C@@H]1C` ?
OUT: 0.976

IN: For `CC(C)(C)N1C(=O)[C@H]2[C@H]3[C@H](O)C=CC(=O)[C@@H]3CC[C@H]2C1=O` , what is its reported z-score?
OUT: -0.269

IN: # input molecule: `CO[C@@H]1COC(=O)[C@@H](C)NC(=O)CC=C[C@@H](C)[C@H](NS(=O)(=O)c2ccc(C)cc2)COC(=O)[C@H](C)NC(=O)CC=C[C@H]1C` ; wanted: its z-score
OUT: 0.458

IN: # query: z-score of entry `CO[C@@H]1COC(=O)CC=C[C@@H](C)[C@@H]2C=C[C@H](O)[C@@H](COC(=O)CC=C[C@H]1C)O2`
OUT: 1.26

IN: Any idea what z-score was measured for `COC(=O)CC=C[C@@H](C)[C@@H](C=NO[C@H](C)c1cn([C@H](CO)Cc2ccccc2)nn1)OC` ?
OUT: -0.0647

IN: Find the recorded z-score belonging to `C[C@H]1CC[C@H]2C(=O)O[C@H](COc3ccc(C(C)(C)C)cc3)CN2[C@@H]1c1ccc(Br)cc1` and report it.
OUT: 0.354

IN: Entry `CCN1C(=O)[C@H]2[C@H]3[C@H](O)[C@H](O)CC(=NO[C@@H](C)c4cn([C@H](CO)Cc5ccccc5)nn4)[C@@H]3CC[C@H]2C1=O` has what z-score?
OUT: -0.293

IN: Quick check: z-score of `Cc1ccc(S(=O)(=O)OC[C@H]2CN3[C@H](c4ccc(Br)cc4)[C@@H](C)CC[C@H]3C(=O)O2)cc1` ?
OUT: 0.602

IN: What measured z-score goes with `CCOC(=O)NN=C1C[C@@H](O)[C@@H](O)[C@@H]2[C@@H]3C(=O)N([C@@H](C)c4ccccc4)C(=O)[C@@H]3CC[C@@H]12` ?
OUT: 0.0669

IN: Find the recorded z-score belonging to O=C1OCCC=C1C(O)CCc1ccccc1 (centres undefined) and report it.
OUT: 0.0955

IN: Any idea what z-score was measured for `CON=C[C@@H](NS(=O)(=O)c1ccc(C)cc1)[C@H](C)C=CCC(=O)OC` ?
OUT: 1.19

IN: Fill in: z-score of `CO[C@@H]1COC(=O)[C@H](CCSC)NC(=O)CC=C[C@@H](C)COC(=O)[C@H](C)NC(=O)CC=C[C@H]1C` is ___
OUT: 0.205
